The measured values listed here are drawn from patent US20140377340A1.

Answer each item with its documented IC50.
- Measured target: purified HLA DRB1*1101 (Homo sapiens, UniProt P01903+P01911, A100R/A169T/A87E/I96F/K41T/L162R/M171V/P40S/Q125H/Q178H/Q39Y/Q99D/R42S/S66Y/T262R/V115G/W38E)
- Construct: purified from EBV transformed homozygous cell lines or single MHC allele transfected 721.221, C1R, or fibroblast lines; made in house
- Sequence (P01903 26-254, other chains not shown): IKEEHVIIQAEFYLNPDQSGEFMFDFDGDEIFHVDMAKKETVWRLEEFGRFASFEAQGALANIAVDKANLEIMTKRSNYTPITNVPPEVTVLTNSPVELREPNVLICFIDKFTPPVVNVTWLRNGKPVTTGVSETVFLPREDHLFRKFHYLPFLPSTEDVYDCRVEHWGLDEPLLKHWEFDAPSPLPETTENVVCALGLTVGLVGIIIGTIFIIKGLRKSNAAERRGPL
- Assay explanation: HLA-DR radioligand binding inhibition assay, DRB1*1101
- Measurement conditions: IC50 nM purified HLA DRB1 *1101, purified HLA DRB1*1101
A number alone suffices; assume nM.

Request: Please give the measured IC50 for this compound: CC[C@H](C)[C@H](N)C(=O)N[C@@H](CO)C(=O)N[C@@H](C)C(=O)N[C@H](C(=O)N[C@H](C(=O)NCC(=O)N[C@H](C(=O)N[C@@H](CC(C)C)C(=O)N[C@@H](CC(C)C)C(=O)N[C@H](C(=O)N[C@H](C(=O)N[C@H](C(=O)N[C@@H](CC(C)C)C(=O)NCC(=O)N[C@H](C(=O)O)C(C)C)C(C)C)C(C)C)C(C)C)[C@@H](C)CC)C(C)C)C(C)C [Peptide 9019.0067]
Response: 5140

Request: Look up IC50 for this compound: CC(C)C[C@H](NC(=O)[C@@H](N)Cc1ccc(O)cc1)C(=O)N[C@@H](Cc1c[nH]c2ccccc12)C(=O)N[C@@H](Cc1c[nH]c2ccccc12)C(=O)N[C@H](C(=O)N[C@@H](CC(N)=O)C(=O)NCC(=O)N[C@@H](CCC(N)=O)C(=O)N[C@@H](CO)C(=O)N[C@@H](CC(C)C)C(=O)N1CCC[C@H]1C(=O)N[C@H](C(=O)N[C@@H](CO)C(=O)N1CCC[C@H]1C(=O)N[C@@H](CCCNC(=N)N)C(=O)O)C(C)C)C(C)C [Peptide 9019.0134]
Response: 3200

----------
- Measured target: purified HLA DRB1*0701 (Homo sapiens, UniProt P01903+P01911, A100R/A102G/A103Q/D57E/D86V/E43K/F76Y/K127E/L162R/M171V/P40G/Q125H/Q99D/R33Q/R42Y/R54Q/S133A/S66F/T210M/V115G/Y107V/Y59L/Y89S)
- Construct: purified from EBV transformed homozygous cell lines or single MHC allele transfected 721.221, C1R, or fibroblast lines; made in house
- Assay explanation: HLA-DR radioligand binding inhibition assay, DRB1*0701
- Measurement conditions: IC50 nM purified HLA DRB1 *0701, purified HLA DRB1*0701
One threshold, 4000 nM, splits the recorded IC50 values: lower ones are criterion met, equal or higher ones are criterion not met.

Request: State whether 4000 nM exceeds IC50 recorded for CC(C)C[C@H](NC(=O)[C@H](Cc1c[nH]cn1)NC(=O)[C@@H](N)CS)C(=O)N[C@@H](Cc1ccccc1)C(=O)N[C@@H](Cc1ccc(O)cc1)C(=O)N[C@@H](CC(N)=O)C(=O)N[C@@H](CCC(=O)O)C(=O)N[C@@H](CCC(N)=O)C(=O)N[C@@H](CCC(N)=O)C(=O)N[C@@H](CCC(=O)O)C(=O)N[C@@H](C)C(=O)N[C@@H](CCCNC(=N)N)C(=O)NCC(=O)N[C@H](C(=O)N[C@@H](Cc1c[nH]cn1)C(=O)O)C(C)C [Peptide 9019.0023] .
Response: criterion not met

Request: is_below(IC50, 4000 nM) for CC(C)C[C@H](NC(=O)[C@H](CC(N)=O)NC(=O)CNC(=O)[C@H](CCC(N)=O)NC(=O)[C@@H](NC(=O)[C@@H](NC(=O)[C@H](CCC(N)=O)NC(=O)[C@H](CS)NC(=O)CNC(=O)[C@H](CCC(N)=O)NC(=O)[C@H](Cc1ccc(O)cc1)NC(=O)[C@H](CC(C)C)NC(=O)[C@H](Cc1c[nH]cn1)NC(=O)[C@@H](N)CCCNC(=N)N)C(C)C)C(C)C)C(=O)N[C@@H](CCC(=O)O)C(=O)O [Peptide 9019.0028] ?
Response: criterion not met

Request: Strictly below 4000 nM: is that where IC50 of CC[C@H](C)[C@H](NC(=O)[C@@H](NC(=O)[C@@H]1CCCN1C(=O)[C@H](C)NC(=O)[C@H](CC(=O)O)NC(=O)[C@@H]1CCCN1C(=O)CNC(=O)[C@H](Cc1ccc(O)cc1)NC(=O)[C@H](CC(C)C)NC(=O)[C@@H](NC(=O)[C@H](CC(N)=O)NC(=O)[C@@H](N)CC(C)C)C(C)C)[C@@H](C)O)C(=O)N[C@@H](CO)C(=O)N1CCC[C@H]1C(=O)N[C@@H](CC(C)C)C(=O)O [Peptide 9019.0120] sits?
Response: criterion met

Request: Please let me know if CC[C@H](C)[C@H](NC(=O)[C@H](CCC(=O)O)NC(=O)[C@H](CCCNC(=N)N)NC(=O)CNC(=O)[C@H](CO)NC(=O)[C@H](Cc1ccc(O)cc1)NC(=O)[C@H](C)NC(=O)[C@@H]1CCCN1C(=O)CN)C(=O)N[C@H](C(=O)N[C@@H](Cc1ccc(O)cc1)C(=O)N1CCC[C@H]1C(=O)N[C@@H](CC(N)=O)C(=O)N[C@@H](C)C(=O)N[C@@H](CO)C(=O)O)[C@@H](C)CC [Peptide 9019.0111] shows IC50 below 4000 nM.
Response: criterion not met

Request: Determine whether this compound shows IC50 lower than 4000 nM (ties excluded): CC[C@H](C)[C@H](NC(=O)[C@H](CCC(N)=O)NC(=O)[C@H](CCSC)NC(=O)[C@H](CS)NC(=O)[C@H](Cc1c[nH]c2ccccc12)NC(=O)[C@H](CC(N)=O)NC(=O)[C@H](CC(C)C)NC(=O)[C@@H](N)CC(C)C)C(=O)N[C@@H](C)C(=O)N[C@@H](CCCCN)C(=O)NCC(=O)N[C@@H](CCSC)C(=O)N[C@@H](CO)C(=O)N[C@@H](Cc1ccc(O)cc1)C(=O)N[C@@H](CC(C)C)C(=O)O [Peptide 9019.0082]
Response: criterion met

Request: Please determine if CC(C)C[C@H](NC(=O)[C@@H](NC(=O)[C@H](CCCNC(=N)N)NC(=O)[C@H](CS)NC(=O)[C@@H](N)CCC(=O)O)C(C)C)C(=O)N[C@@H](CCC(N)=O)C(=O)NCC(=O)N[C@@H](CC(C)C)C(=O)N1CCC[C@H]1C(=O)N[C@@H](CCCNC(=N)N)C(=O)N[C@@H](CCC(=O)O)C(=O)N[C@@H](Cc1ccc(O)cc1)C(=O)N[C@H](C(=O)N[C@@H](CC(N)=O)C(=O)N[C@@H](C)C(=O)O)C(C)C [Peptide 9019.0063] is below 4000 nM in terms of IC50.
Response: criterion not met

Request: Confirm or reject: IC50 of CC[C@H](C)[C@H](NC(=O)[C@@H](NC(=O)[C@H](CCC(=O)O)NC(=O)[C@H](CCCCN)NC(=O)[C@H](CCSC)NC(=O)[C@H](CCCCN)NC(=O)[C@H](CO)NC(=O)[C@H](C)N)[C@@H](C)O)C(=O)N1CCC[C@H]1C(=O)N[C@@H](CC(C)C)C(=O)N[C@H](C(=O)N[C@@H](C)C(=O)N[C@@H](CCC(=O)O)C(=O)N[C@@H](CCCCN)C(=O)N[C@@H](CC(C)C)C(=O)O)[C@@H](C)O [Peptide 9019.0158] lies strictly below 4000 nM
Response: criterion met

Request: Does the reported IC50 of CC[C@H](C)[C@H](NC(=O)CNC(=O)[C@H](CC(C)C)NC(=O)CNC(=O)[C@H](CCC(N)=O)NC(=O)[C@H](CC(C)C)NC(=O)[C@@H](NC(=O)[C@H](CC(C)C)NC(=O)[C@@H](N)CO)[C@@H](C)O)C(=O)N[C@@H](CO)C(=O)N[C@@H](Cc1c[nH]c2ccccc12)C(=O)N[C@@H](CC(C)C)C(=O)NCC(=O)N[C@@H](CC(C)C)C(=O)N[C@@H](CCCNC(=N)N)C(=O)O [Peptide 9019.0055] stay below 4000 nM?
Response: criterion met

Request: Hello, is IC50 of the following compound strictly smaller than 4000 nM? CC(C)C[C@H](NC(=O)[C@H](CCCNC(=N)N)NC(=O)[C@H](CCC(=O)O)NC(=O)[C@@H]1CCCN1)C(=O)N[C@@H](C)C(=O)N[C@@H](C)C(=O)N[C@@H](CS)C(=O)NCC(=O)N1CCC[C@H]1C(=O)N1CCC[C@H]1C(=O)N1CCC[C@H]1C(=O)N[C@H](C(=O)N[C@@H](C)C(=O)N1CCC[C@H]1C(=O)N1CCC[C@H]1C(=O)O)C(C)C [Peptide 9019.0179]
Response: criterion not met
